experimental target: T1, soluble cynomolgus macaque BTLA extracellular domain (BTLA K31-R151) (cynomolgus macaque)
T1 construct: also called cynomolgus BTLA; cyno BTLA
T1 chain: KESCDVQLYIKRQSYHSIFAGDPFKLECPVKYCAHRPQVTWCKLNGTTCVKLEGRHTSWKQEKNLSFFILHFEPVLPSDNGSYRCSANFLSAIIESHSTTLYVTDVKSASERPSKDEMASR
procedure summary: SPR 37C, mAb captured, BTLA ECD analyte;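 also: Anti-BTLA mouse antibodies captured on a sensor chip via polyclonal anti-mouse IgG, isotype control antibody in reference channel, rates fitted after reference and blank subtraction to derive Kd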
Measured Kd, listed per entry.

- binder: "8C4 (antibody, IgG1, V domains shown, mIgG1) VH: DVQLQESGPGMVKPSQSLSLTCTVTGYSITSGYDWHWIRHFPGNKLEWMGYISYSGSTNYNPSLKSRISITHDTSKNHFFLKLNSVTTEDTATYYCARGTPVVAEDYFDYWGQGTTLTVSS VL: QAVVTQESALSTSPGETVTLTCRSSTGAVTTSNYANWVQEKPDHLFTGLIGATNNRAPGVPARFSGSLIGDKAALTITGAQTEDEAIYFCALWYSNHLVFGGGTKLTVLG"
  readout unit: "nM"
  Kd: 161
- binder: "14D4 (antibody, IgG1, V domains shown, mIgG1) VH: QVQLQQPGAELVKPRASVKLSCKASGYTFTSYWMHWVKQRPGQGLEWIGMIHPNNGIPNYNEKFKSKATLTVDKSSTTAYMQLSSLTSEDSAVYHCAREGYYGSEGYFDVWGTGTTVTVSS VL: QIVLTQSPAIMSASPGEKVTMTCSASSSISYIHWYQQKPGTSPKRWIYDTSKLASGVPARFSGSGSGTSYSLTISSMEAEDAATYYCHQRSTYPYTFGGGTKLEIK"
  readout unit: "nM"
  Kd: 1.83
- binder: "6.2 (antibody, IgG1, V domains shown, mIgG1; also called clone 6.2; parent clone 6.2) VH: EVKLVESGGGLVKPGGSLKLSCAASGFTLSSYGMSWVRQIPEKRLEWVASIRSDGNTYYPDSVKGRFIISRDNARNILYLQMSSLRSEDTAMYYCTRGGYYGSSPYYWGQGTTLTVSS VL: DIVMSQSPSSLPVSVGEKISMTCKSSQSLLYSSNQKNYLAWYQQKPGQSPKLLIYWASTRDSGVPDRFIGSGSGTDFTLTINSVKAEDLAVYYCQQYYNYLTFGAGTKLELK"
  readout unit: "nM"
  Kd: 9.71
- binder: "2.8.6 (antibody, V domains shown, mouse IgG1k hybridoma antibody; also called clone 2.8.6) VH: QVQLKESGPGLVAPSQSLSITCTVSGFSLTTYGVHWVRQSPGKGLEWLGVMWPGGRTSYNPAPMSRLSISKDNSKSQVFLKMNSLQTDDTAMYYCVRGDYEYDYYAMDYWGQGTSVTVSS VL: QIVLSQSPAILSASPGEKVTMTCRASSSVSYMHWYQQKPGSSPKPWIYATSNLASGVPARFSGSGSGTSYSLTISRMEAEDAATYYCHQWSSNPYTFGGGTKLEIK"
  readout unit: "nM"
  Kd: 7.89
- binder: "16H2 (antibody, IgG1, V domains shown, mIgG1) VH: EVQLQQSGPELVQPGASVKISCKASGYTFTDYYMIWVKQSHGKSLEWIGNINPNNGGTTYNQKFKGKATLTVDKSSSTAYMGLPSLTSEDSAVYYCARGGLRPLYFDYWGQGTTLTVSS VL: NIVMTQSPKSMSMSVGERVTLSCKASENVDTYVSWYQQKPEQSPKLLIYGASNRYTGVPDRFTGSGSATDFTLTISSVQAEDLADYHCGQSYSYPLTFGAGTKLELI"
  readout unit: "nM"
  Kd: 160
- binder: "11.5.1 (antibody, V domains shown, mouse IgG1k hybridoma antibody) VH: EVQLQESGPSLVKPSQTLSLTCSVTGDSITSAYWNWIRKFPGNKLEYMGYISYSGSTYFNPSLKSRISITRNTSKNQYYLQLNSVTTEDTATYYCARSHYYGYYFDYWGHGTTLTVSS VL: DIVLTQSPASLAVSLGQRATISCRASETIDSYGDSLMHWYQQKAGQPPKLLIYRASNLESGIPARFSGSGSRTDFTLTINPVEADDVATYYCQQTDEDPYTFGGGTKLEIK"
  readout unit: "nM"
  Kd: 0.99
- binder: "26B1 (antibody, IgG1, V domains shown, mIgG1) VH: EVQLQQSGPVLVKPGASVKMSCKASGYTFTDYYLNWVKQSHGKSLEWIGLIDPYNGGSSCNQKFKGKATLTVDKSSSTAYMDLNSLTSEDSAVYYCARGNAMDYWGQGTSVTVSS VL: DIVMTQSHKFMSTSVGDRVSITCKASQDVSTAVAWYQEKPGQSPKLLIYWASTRHTGVPDRFTGSGSGTDYILNISSVQAEDLALYYCQQHYIIPYMFGGGTKLEIK"
  readout unit: "nM"
  Kd: 168
